Recorded values, source ChEMBL document CHEMBL1135995.

Readings of pKB for the listed compounds
Study system: Muscarinic acetylcholine receptor M3 (Cavia porcellus)
Method: Antagonist activity against Muscarinic acetylcholine receptor M3 of isolated Guinea Pig Longitudinal ileum
Assay type: functional, tissue-based
Parameter measured: pKB

[
  {
    "Input smiles": "COc1ccccc1CN1CCCCCCN(C)CCCCCCCCN(C)CCCCCCN(Cc2ccccc2OC)Cc2ccc(cc2)Cc2ccc(cc2)C1",
    "Parameter measured": "pKB",
    "Observed measurement": "< 5"
  },
  {
    "Input smiles": "COc1ccccc1CNCCCCCCNCc1ccc(-c2ccc(-c3ccc(CNCCCCCCNCc4ccccc4OC)cc3)cc2)cc1",
    "Parameter measured": "pKB",
    "Observed measurement": "< 5"
  },
  {
    "Input smiles": "COc1ccccc1CN1CCCCCCCCN(Cc2ccccc2OC)C(=O)CCCCCNCc2ccc(cc2)CNCCCCCC1=O",
    "Parameter measured": "pKB",
    "Observed measurement": "< 5"
  },
  {
    "Input smiles": "COc1ccccc1CNCCCCCCNCCCCCCCCCCCCNCCCCCCNCc1ccccc1OC",
    "Parameter measured": "pKB",
    "Observed measurement": 5.98
  },
  {
    "Input smiles": "COc1ccccc1CN1CCCCCCCCN(Cc2ccccc2OC)CCCCCCNCc2ccc(cc2)Cc2ccc(cc2)CNCCCCCC1",
    "Parameter measured": "pKB",
    "Observed measurement": "< 5"
  },
  {
    "Input smiles": "COc1ccccc1CNCCCCCCNCCCCCCCCNCCCCCCNCc1ccccc1OC",
    "Parameter measured": "pKB",
    "Observed measurement": 6.14
  },
  {
    "Input smiles": "COc1ccccc1CN1CCCCCCCCN(Cc2ccccc2OC)C(=O)CCCCCNCc2ccc(cc2)-c2ccc(cc2)CNCCCCCC1=O",
    "Parameter measured": "pKB",
    "Observed measurement": "< 5"
  },
  {
    "Input smiles": "COc1ccccc1CN(C)CCCCCC(=O)N(C)CCCCCCCCN(C)C(=O)CCCCCN(C)Cc1ccccc1OC",
    "Parameter measured": "pKB",
    "Observed measurement": 5.55
  }
]

###

Test system: Muscarinic acetylcholine receptor M2 (Cavia porcellus)
Method: Antagonist activity against Muscarinic acetylcholine receptor M2 of isolated Guinea Pig Left artium
Parameter measured: pKB

[
  {
    "Input smiles": "COc1ccccc1CN(C)CCCCCC(=O)N(C)CCCCCCCCN(C)C(=O)CCCCCN(C)Cc1ccccc1OC",
    "Observed measurement": 6.39
  },
  {
    "Input smiles": "COc1ccccc1CN1CCCCCCCCN(Cc2ccccc2OC)C(=O)CCCCCNCc2ccc(cc2)CNCCCCCC1=O",
    "Observed measurement": "< 5"
  },
  {
    "Input smiles": "COc1ccccc1CNCCCCCCNCc1ccc(-c2ccc(-c3ccc(CNCCCCCCNCc4ccccc4OC)cc3)cc2)cc1",
    "Observed measurement": "< 5"
  },
  {
    "Input smiles": "COc1ccccc1CN1CCCCCCN(C)CCCCCCCCN(C)CCCCCCN(Cc2ccccc2OC)Cc2ccc(cc2)Cc2ccc(cc2)C1",
    "Observed measurement": "< 5"
  },
  {
    "Input smiles": "COc1ccccc1CNCCCCCCNCCCCCCCCCCCCNCCCCCCNCc1ccccc1OC",
    "Observed measurement": 7.35
  },
  {
    "Input smiles": "COc1ccccc1CN1CCCCCCCCN(Cc2ccccc2OC)C(=O)CCCCCNCc2ccc(cc2)-c2ccc(cc2)CNCCCCCC1=O",
    "Observed measurement": "< 5"
  }
]
